Where do the numbers come from? From patent US6737383B1.

Test system: soybean
Test name: Test B pre/postemergence soybean
Assay type: in vivo, Glycine max
Settings: Preemergence, Rate 500 g/ha; scale of 0 to 10 where 0 is no effect and 10 is complete control
The entries below are paired with their reported Plant response rating, Soybean.

- Molecule: "CCOC(Cn1c(=O)on(C(=O)N(c2ccccc2)C(C)C)c1=O)OCC"
  Test target: "soybean"
  Plant response rating, Soybean: 0
- Molecule: "CC(C)N(C(=O)n1oc(=O)n(Cc2ccco2)c1=O)c1ccc(F)cc1"
  Test target: "soybean"
  Plant response rating, Soybean: 0
- Molecule: "Cc1ccccc1-n1c(=O)on(C(=O)N(c2ccc(Cl)cc2F)C(C)C)c1=O"
  Test target: "soybean"
  Plant response rating, Soybean: 0
- Molecule: "Cc1ccccc1-n1c(=O)on(C(=O)N(c2ccc(C(C)(C)C)cc2)C(C)C)c1=O"
  Test target: "soybean"
  Plant response rating, Soybean: 0
- Molecule: "CC(C)N(C(=O)n1oc(=O)n(CC2CCCCO2)c1=O)c1ccc(F)cc1 (centres unmarked)"
  Test target: "soybean"
  Plant response rating, Soybean: 7

====

Test system: blackgrass
Test name: Test B pre/postemergence blackgrass
Type: in vivo, Alopecurus myosuroides
Settings: Preemergence, Rate 500 g/ha; scale 0 (no effect) to 10 (complete control)
The entries below are paired with their reported Blackgrass plant response rating.
Reported property: Blackgrass plant response rating

- Compound: "CC(C)N(C(=O)n1oc(=O)n(-c2cc(Cl)cc(Cl)c2)c1=O)C1=CCOCC1 [Compound 9]"
  Test target: "blackgrass"
  Reported property: "Blackgrass plant response rating"
  Measured: 0
- Compound: "COc1ccc(-n2c(=O)on(C(=O)N(c3ccc(F)cc3)C(C)C)c2=O)c(C)c1 [Compound 35]"
  Test target: "blackgrass"
  Reported property: "Blackgrass plant response rating"
  Measured: 3
- Compound: "Cc1ccccc1-n1c(=O)on(C(=O)N(c2ccc(Cl)cc2)C(C)C)c1=O [Compound 41]"
  Test target: "blackgrass"
  Reported property: "Blackgrass plant response rating"
  Measured: 4
- Compound: "CCN(CC)C(=O)n1oc(=O)n(-c2cccc3c2CCCC3)c1=O [Compound 89]"
  Test target: "blackgrass"
  Reported property: "Blackgrass plant response rating"
  Measured: 0
- Compound: "CCN(C(=O)n1oc(=O)n(-c2c(C)cc(C)cc2C)c1=O)C1CCCCC1 [Compound 63]"
  Test target: "blackgrass"
  Reported property: "Blackgrass plant response rating"
  Measured: 0
- Compound: "CC(C)N(C(=O)n1oc(=O)n(C2CCCCC2C(F)(F)F)c1=O)c1ccc(F)cc1 (stereo not drawn) [Compound 99]"
  Test target: "blackgrass"
  Reported property: "Blackgrass plant response rating"
  Measured: 4

====

The entries below are paired with their reported Velvetleaf plant response rating.
System: velvetleaf
Test name: Test B pre/postemergence velvetleaf
Type: in vivo, Abutilon theophrasti
Settings: Postemergence, Rate 125 g/ha; scale 0 to 10, 0 is no effect, 10 is complete control
Reported property: Velvetleaf plant response rating

- Compound: "COCn1c(=O)on(C(=O)N(c2ccc(Cl)cc2)C(C)C)c1=O [Compound 533]"
  Measured: 4
- Compound: "CCCCCn1c(=O)on(C(=O)N(c2ccc(Cl)cc2)C(C)C)c1=O [Compound 528]"
  Measured: 4
- Compound: "CCc1nc(C)c(Cn2c(=O)on(C(=O)N(c3ccc(Cl)cc3)C(C)C)c2=O)s1 [Compound 499]"
  Measured: 0
- Compound: "C=CCCCn1c(=O)on(C(=O)N(c2ccc(F)cc2F)C(C)C)c1=O [Compound 516]"
  Measured: 4

====

Tested on: velvetleaf
Test name: Test B pre/postemergence velvetleaf
Format: in vivo, Abutilon theophrasti
Settings: Postemergence, Rate 125 g/ha; scale 0 to 10, 0 is no effect, 10 is complete control

- Compound: "CC(C)C(C)n1c(=O)on(C(=O)N(c2ccc(F)cc2F)C(C)C)c1=O (centres unmarked) [Compound 356]"
  Test target: "velvetleaf"
  Plant response rating, Velvetleaf: 0
- Compound: "Cc1c(-n2c(=O)on(C(=O)N(c3ccc(F)cc3F)C(C)C)c2=O)ccc2ccccc12 [Compound 337]"
  Test target: "velvetleaf"
  Plant response rating, Velvetleaf: 0
- Compound: "Cc1c(-n2c(=O)on(C(=O)N(c3ccc(F)cc3)C(C)C)c2=O)ccc2ccccc12 [Compound 338]"
  Test target: "velvetleaf"
  Plant response rating, Velvetleaf: 0
- Compound: "CC(C)N(C(=O)n1oc(=O)n(C2CCC2)c1=O)c1ccc(Cl)cc1 [Compound 349]"
  Test target: "velvetleaf"
  Plant response rating, Velvetleaf: 0
- Compound: "CC(C)N(C(=O)n1oc(=O)n(C2CCC2)c1=O)c1ccccc1 [Compound 348]"
  Test target: "velvetleaf"
  Plant response rating, Velvetleaf: 2

====

Test system: blackgrass
Test name: Test B pre/postemergence blackgrass
Assay type: in vivo, Alopecurus myosuroides
Settings: Rate 62 g/ha, Postemergence; scale of 0 to 10 where 0 is no effect and 10 is complete control
Please use y whenever Blackgrass plant response rating is not below 2, and n whenever it is.

- Compound: "CC(C)N(C(=O)n1oc(=O)n(CC(=O)OC(C)(C)C)c1=O)c1ccc(F)cc1"
  Discrete label: "y"
- Compound: "CC(C)N(C(=O)n1oc(=O)n(C2CCOCC2)c1=O)c1ccccc1"
  Discrete label: "y"
- Compound: "CC(C)N(C(=O)n1oc(=O)n(C2CCCCCC2)c1=O)C1=CCCCC1"
  Discrete label: "n"
- Compound: "CC(C)N(C(=O)n1oc(=O)n(C2CCCCC2)c1=O)c1ccc(Cl)cc1"
  Discrete label: "n"
- Compound: "Cc1nsc(Cl)c1Cn1c(=O)on(C(=O)N(c2ccc(F)cc2)C(C)C)c1=O"
  Discrete label: "n"
- Compound: "CC1CCCCC1n1c(=O)on(C(=O)N(c2ccc(F)cc2F)C(C)C)c1=O (stereo not drawn)"
  Discrete label: "n"
- Compound: "CC(C)N(C(=O)n1oc(=O)n(C(C)C2CC2)c1=O)c1ccc(F)cc1 (stereo not drawn)"
  Discrete label: "y"

====

The entries below are paired with their reported Morningglory plant response rating.
Test system: morningglory
Test name: Test B pre/postemergence morningglory
Format: in vivo, Ipomoea hederacea
Settings: Postemergence, Rate 125 g/ha; scale of 0 to 10 where 0 is no effect and 10 is complete control

- Molecule: "CCN(CC)C(=O)n1oc(=O)n(-c2cccc3c2CCCC3)c1=O [Compound 89]"
  Morningglory plant response rating: 0
- Molecule: "C#CCn1c(=O)on(C(=O)N(c2ccc(F)cc2)C(C)C)c1=O [Compound 743]"
  Morningglory plant response rating: 3
- Molecule: "Cc1noc(C)c1-n1c(=O)on(C(=O)N(c2ccc(F)cc2)C(C)C)c1=O [Compound 155]"
  Morningglory plant response rating: 0
- Molecule: "Cc1nc(C(C)n2c(=O)on(C(=O)N(c3ccccc3)C(C)C)c2=O)sc1C (centres unmarked) [Compound 756]"
  Morningglory plant response rating: 7
- Molecule: "CC(C)N(C(=O)n1oc(=O)n(Cc2cccs2)c1=O)c1ccccc1 [Compound 103]"
  Morningglory plant response rating: 10

====

System: velvetleaf
Test name: Test B pre/postemergence velvetleaf
Assay type: in vivo, Abutilon theophrasti
Settings: Postemergence, Rate 1000 g/ha; scale 0 to 10 (0 no effect, 10 complete control)
The entries below are paired with their reported Velvetleaf plant response rating.

- Compound: "COC(=O)C(c1ccccc1)n1c(=O)on(C(=O)N(c2ccc(F)cc2)C(C)C)c1=O (stereo not shown)"
  Velvetleaf plant response rating: 3
- Compound: "CC(C)N(C(=O)n1oc(=O)n(C2CCCCC2C(F)(F)F)c1=O)c1ccc(F)cc1 (stereo not shown)"
  Velvetleaf plant response rating: 7
- Compound: "C=CCn1c(=O)on(C(=O)N(c2ccc(F)cc2)C(C)C(=O)OCC)c1=O (stereo not shown)"
  Velvetleaf plant response rating: 0
- Compound: "CC(C)N(C(=O)n1oc(=O)n(-c2ccc(OC(F)(F)F)cc2)c1=O)C1=CCOCC1"
  Velvetleaf plant response rating: 0

====

Tested on: blackgrass
Test name: Test B pre/postemergence blackgrass
Format: in vivo, Alopecurus myosuroides
Settings: Preemergence, Rate 62 g/ha; scale 0 to 10 (0 no effect, 10 complete control)
The entries below are paired with their reported Blackgrass plant response rating.
Reported property: Blackgrass plant response rating

- Molecule: "C=CCn1c(=O)on(C(=O)N(c2ccccc2)C(C)C)c1=O [Compound 93]"
  Measured: 9
- Molecule: "Cc1ccccc1Cn1c(=O)on(C(=O)N(c2ccc(F)cc2)C(C)C)c1=O [Compound 88]"
  Measured: 1
- Molecule: "CCN(C(=O)n1oc(=O)n(-c2c(C)cc(C)cc2C)c1=O)C1CCCCC1 [Compound 63]"
  Measured: 0
- Molecule: "CCc1nc(C)c(C(C)n2c(=O)on(C(=O)N(c3ccc(F)cc3F)C(C)C)c2=O)s1 (centres unmarked) [Compound 589]"
  Measured: 0
- Molecule: "CCOC(Cn1c(=O)on(C(=O)N(c2ccccc2)C(C)C)c1=O)OCC [Compound 632]"
  Measured: 2
- Molecule: "CCCn1c(=O)on(C(=O)N(c2ccc(Cl)cc2)C(C)C)c1=O [Compound 119]"
  Measured: 5
- Molecule: "CC(C)N(C(=O)n1oc(=O)n(Cc2cccs2)c1=O)c1ccccc1 [Compound 103]"
  Measured: 0
- Molecule: "CC(=O)C(C)n1c(=O)on(C(=O)N(c2ccccc2)C(C)C)c1=O (centres unmarked) [Compound 576]"
  Measured: 0
- Molecule: "CCn1c(=O)on(C(=O)N(c2ccc(Cl)cc2)C(C)C)c1=O [Compound 108]"
  Measured: 5
- Molecule: "COCn1c(=O)on(C(=O)N(c2ccc(Cl)cc2)C(C)C)c1=O [Compound 533]"
  Measured: 4
- Molecule: "CC(C)=CCn1c(=O)on(C(=O)N(c2ccc(Cl)cc2)C(C)C)c1=O [Compound 545]"
  Measured: 0
- Molecule: "CCC(C)n1c(=O)on(C(=O)N(c2ccc(F)cc2)C(C)C)c1=O (centres unmarked) [Compound 613]"
  Measured: 8
- Molecule: "CC(C)N(C(=O)n1oc(=O)n(C2CCCCC2)c1=O)c1ccc(F)cc1 [Compound 110]"
  Measured: 0
- Molecule: "CC(C)N(C(=O)n1oc(=O)n(C2CCCCC2)c1=O)c1ccc(Cl)cc1 [Compound 111]"
  Measured: 0
